Molecular target: T1, TIGIT on TIGIT-over expressing NFAT-Luc/Jurkat effector cells (GenScript reporter cell line) (UniProt Q495A1 22-244, limits assumed)
T1 sequence (looked up): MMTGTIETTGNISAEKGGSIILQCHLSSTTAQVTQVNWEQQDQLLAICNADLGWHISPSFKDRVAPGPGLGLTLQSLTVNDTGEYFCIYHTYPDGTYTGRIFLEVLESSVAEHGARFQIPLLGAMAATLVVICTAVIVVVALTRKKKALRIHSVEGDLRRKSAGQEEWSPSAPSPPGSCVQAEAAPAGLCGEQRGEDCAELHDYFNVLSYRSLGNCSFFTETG
Assay: cell-based or functional assay
Please go through the items and note down their Top (RLU).
Numbers only, in RLU.

Binder	Test Result
huTIGIT-6-3 (antibody, human IgG1, kappa, V domains shown, Humanized IgG; also called 6VH6.M6 + 6VL1.M1) VH: QVQLVQSGAEVKKPGASVKVSCKASGYTFTENAMHWVRQAPGQRLEWIGGINPNQGGTSYSQKFQGRATLTVDTSASTAYMELSSLRSEDTAVYYCTRSSYYRYDLDYWGQGTTVTVSS VL: DIQMTQSPSSLSASVGDRVTITCQASQDIKTALAWYQQKPGKAPKLLIYSASYRYTGVPSRFSGSGSGTDFTFTISSLQPEDIATYYCHQHYTTPWTFGGGTKLEIKR	135000
TIGIT-19 chimeric antibody (antibody, human IgG1, kappa, V domains shown, also called 19VH + 19VL) VH: QVQLQQPGPELVKPGTSVMLSCKASGYAFSRYSMYWVKQSHGKSLEWIAFIDPYNGGSTYNQRFRGKATLTVDKSSSTAYMHLNTLTSDDSAVYYCARGGDYGWYLGVWGAGTTVTVSS VL: DIQMTQSPASLSASVGETVTITCRPSENIYTYLSWYQQKRGKSPQLLVYNAKTLPENVPSRFSGSGSGTQFSLKIDSLQPEDFGNYYCQHHYGNPLTFGAGTKLELKR	130000
huTIGIT-19-3 (antibody, human IgG1, kappa, V domains shown, Humanized IgG; also called 19VH4.M10 + 19VL1.M4) VH: QVQLVQSGAEVKKPGASVKVSCKASGYTFTRYSMYWVRQAPGQGLEWIAFIDAYSGGSTYAQKFQGKATLTVDTSISTAYMELSRLRSDDTAVYYCARGGDYGWYLGVWGQGTLVTVSS VL: DIQMTQSPSSLSASVGDRVTITCRPSENIYTYLSWYQQKPGKAPKLLIYNAKSLPSGVPSRFSGSGSGTDFTLTISSLQPEDFATYYCQHHYGNPLTFGQGTKVEIKR	142000
TIGIT-3 chimeric antibody (antibody, human IgG1, kappa, V domains shown, also called 3VH + 3VL) VH: EVQLVESGGGLVQPGGSLKLSCAASGFTFSSYGMSWVRQTPDKRLELVATIKSDGGSTNLPDSVKGRFTISRDNAKNTLHLQMSSLKSEDTAMYYCVRGYFDYWGQGTSVTVSS VL: DIVMTQSHKFMSTSVGDRVSITCKASQDVKTAVAWYQQKPGQSPKLLIYWSSTRHTGVPDRFTGSRSLTDHTLTISSVQAEDLALYYCQQYYSTPYTFGGGTKLELKR	148000
Hu1217-2-2 (anti-TIGIT positive control antibody) (antibody, V domains shown) VH: EVQLVESGGGLVQPGGSLRLSCAASGFTFSDYYMYWVRQAPGKGLEWVAYITKGGGSTYYPDSVKGRFTISRDNAKNTLYLQMNSLRAEDTAVYYCARQTNYDFTMDYWGQGTLVTVSS VL: EIVMTQSPATLSVSPGERATLSCKASQDVGTSVAWYQQKPGQAPRLLIYWASARHTGIPARFSGSGSGTEFTLTISSLQSEDFAVYYCQQYSSYPLTFGGGTKVEIK	163000
huTIGIT-19-2 (antibody, human IgG1, kappa, V domains shown, Humanized IgG; also called 19VH4.M9 + 19VL1.M7) VH: QVQLVQSGAEVKKPGASVKVSCKASGYTFTRYSMYWVRQAPGQGLEWIAFIDAYSGGSTYNQRFRGKATLTVDTSISTAYMELSRLRSDDTAVYYCARGGDYGWYLGVWGQGTLVTVSS VL: DIQMTQSPSSLSASVGDRVTITCRASQSIYSYLSWYQQKPGKAPKLLIYNAKSLPSGVPSRFSGSGSGTDFTLTISSLQPEDFATYYCQHHYGNPLTFGQGTKVEIKR	155000

Please state Top (RLU) for every binder in the list that follows.
1. huTIGIT-19-1 (antibody, human IgG1, kappa, V domains shown, Humanized IgG; also called 19VH4.M9 + 19VL1.M4) VH: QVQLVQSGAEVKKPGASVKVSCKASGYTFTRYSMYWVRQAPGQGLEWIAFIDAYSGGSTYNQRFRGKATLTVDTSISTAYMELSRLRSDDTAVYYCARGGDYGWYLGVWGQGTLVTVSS VL: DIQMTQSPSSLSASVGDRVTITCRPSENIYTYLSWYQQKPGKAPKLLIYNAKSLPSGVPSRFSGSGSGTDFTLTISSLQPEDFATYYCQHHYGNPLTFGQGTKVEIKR
2. huTIGIT-6-1 (antibody, human IgG1, kappa, V domains shown, Humanized IgG; also called 6VH6.M4 + 6VL1.M1) VH: QVQLVQSGAEVKKPGASVKVSCKASGYTITENTMHWVRQAPGQRLEWIGGINPNQGGTSYSQKFQGRATLTVDTSASTAYMELSSLRSEDTAVYYCTRSSYYRYDLDYWGQGTTVTVSS VL: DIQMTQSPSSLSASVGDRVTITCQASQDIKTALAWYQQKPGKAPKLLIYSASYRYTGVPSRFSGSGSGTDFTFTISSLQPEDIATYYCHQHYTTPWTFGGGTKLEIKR
3. TIGIT-6 chimeric antibody (antibody, human IgG1, kappa, V domains shown, also called 6VH + 6VL) VH: QVQLKQSGPELVKPGASVKISCKTSGYTITENTMHWVKQSHGKSLEWIGGINPNNGGTSYNQQFKGKATLTVDKSSSTAYMELRSLTSEDSAVYYCTRSSYYRYDLDYWGQGTTVTVSS VL: DIQMTQSHKFMSTSVGDRVSITCKASQDVKTALAWYQQKPGQSPKLLIYSASYRYTGVPDRFTGSGSGTDFTFTISSVQAEDLAVYYCHQHYTTPWTFGGGTKLEIKR
4. huTIGIT-3-1 (antibody, human IgG1, kappa, V domains shown, Humanized IgG; also called 3VH3.M4 + 3VL4.M6) VH: EVQLVESGGGLVQPGGSLRLSCAASGFTFSSYGMSWVRQAPGKGLELVATIKSSGGSTNLADSVKGRFTISRDNSKNTLYLQMNSLRAEDTAVYYCVRGYFDYWGQGTTVTVSS VL: DIQMTQSPSSLSASVGDRVTITCRASQDIKTALAWYQQKPGKSPKLLIYWASTRQSGVPSRFSGSGSGTDFTLTISSLQPEDVATYYCQQYYSTPYTFGGGTKVEIKR

**Result**
1: 144000; 2: 131000; 3: 139000; 4: 152000

Cited source: patent US20260139048A1
